Would you kindly list EAD using PPK model, using free medium Conc. for each of these compounds?
assay: IVIVE, rat EAD with one‐compartment PPK model; conditions: oral, Css = free medium dTP
Please respond with the number in mg/kg/day and leave the unit unwritten.

Could you share which EAD using PPK model, using free medium Conc. value was measured for CCCCC(C)C(=O)O (stereo not shown) [MHA, 2‐Methylhexanoic acid] ?
573.1

Could you share which EAD using PPK model, using free medium Conc. value was measured for CCCCCC(CCC)C(=O)O (stereo not shown) [PHA, 2‐Propylheptanoic acid] ?
6.3

* * *

test: IVIVE, rat EAD with httk.PBTK model; conditions: oral, Cmax = free medium dTP
Please use Y for EAD using Httk.PBTK model, using free medium Conc. under 60 mg/kg/day and N for everything else, ties included.

# strict comparison: is reported EAD using Httk.PBTK model, using free medium Conc. < 60 mg/kg/day? input = CCCCCC(CCC)C(=O)O (stereo not shown)
Y

# strict comparison: is reported EAD using Httk.PBTK model, using free medium Conc. < 60 mg/kg/day? input = `CCC(CC)C(=O)O`
N

# strict comparison: is reported EAD using Httk.PBTK model, using free medium Conc. < 60 mg/kg/day? input = CCCC(C)C(=O)O (stereo not shown)
N

# strict comparison: is reported EAD using Httk.PBTK model, using free medium Conc. < 60 mg/kg/day? input = `CCCC(C)(C)C(=O)O`
N

# strict comparison: is reported EAD using Httk.PBTK model, using free medium Conc. < 60 mg/kg/day? input = `CCCCCC(=O)O`
N

# strict comparison: is reported EAD using Httk.PBTK model, using free medium Conc. < 60 mg/kg/day? input = CCCC(CCC)C(=O)O [VPA, Valproic acid, reference compound]
Y

# strict comparison: is reported EAD using Httk.PBTK model, using free medium Conc. < 60 mg/kg/day? input = CCCCC(CC)C(=O)O (stereo not shown)
Y

# strict comparison: is reported EAD using Httk.PBTK model, using free medium Conc. < 60 mg/kg/day? input = `C=CCCC(=O)O`
N

# strict comparison: is reported EAD using Httk.PBTK model, using free medium Conc. < 60 mg/kg/day? input = CCCCC(C)C(=O)O (stereo not shown)
N
